# ASSAY_DETAILS: Liver microsomal stability test, human
# Format: in vitro ADME
# MEASUREMENT_CONTEXT: Human liver microsomes, 0.5 mg/mL protein, 37° C., NADPH
Measured half-life values are reported for all entries that follow.
Express your answer in min, writing the number without its unit.

Cc1cc(-c2ccccc2)c(C(=O)C(=O)Nc2ccc3c(c2)C[C@H]2CN(c4ncc(F)cn4)CCN32)n1C: 48.2
Cc1cc(-c2ccccc2)c(C(=O)C(=O)Nc2cc(F)c3c(c2)OC[C@H]2CN(c4ncc(F)cn4)CCN32)n1C: 25.6
Cc1cc(-c2ccccc2)c(C(=O)C(=O)Nc2cc(F)c3c(c2)OCC2CN(c4ncc(F)cn4)CCN32)n1C (centres unmarked): 18.8
Cc1cc(-c2ccccc2)c(C(=O)C(=O)Nc2ccc3c(c2)C[C@@H]2CN(c4ncc(F)cn4)CCN32)n1C: 39.9

### Prompt Bench note: what half-life did Cc1cc(-c2ccccc2)c(C(=O)C(=O)Nc2ccc3c(c2)OCC2CN(c4ncc(C(F)(F)F)cn4)CCN32)n1C (centres unmarked) show?
### Response 23.6

### Prompt Report half-life for Cc1cc(-c2ccccc2)c(C(=O)C(=O)Nc2ccc3c(c2)CCC2CN(c4ncc(F)cn4)CCN32)n1C (centres unmarked) please.
### Response 22.1

### Prompt Entry Cc1cc(-c2ccccc2)c(C(=O)C(=O)Nc2ccc3c(c2)CC2CN(c4ncc(F)cn4)CCN32)n1C (centres unmarked) has what half-life?
### Response 38.3

### Prompt Tell me the measured half-life of Cc1cc(-c2ccccc2)c(C(=O)C(=O)Nc2ccc(N3CCN(c4ncc(F)cn4)CC3)cc2)n1C [Example F901318, reference compound] , please.
### Response 33

###

# ASSAY_DETAILS: Liver microsomal stability test, mouse
# Format: in vitro ADME
# MEASUREMENT_CONTEXT: Mouse liver microsomes, 0.5 mg/mL protein, 37° C., NADPH
Recorded measurements of half-life, one per entry
Give the number first and the unit second.

Examples with their reported half-life follow.
Cc1cc(-c2ccccc2)c(C(=O)C(=O)Nc2ccc3c(c2)C[C@H]2CN(c4ncc(F)cn4)CCN32)n1C: 49.6 min
Cc1cc(-c2ccccc2)c(C(=O)C(=O)Nc2cc(F)c3c(c2)OCC2CN(c4ncc(F)cn4)CCN32)n1C (centres unmarked): 21.8 min

### Prompt I'd like to know its half-life. The compound in question is Cc1cc(-c2ccccc2)c(C(=O)C(=O)Nc2ccc3c(c2)CCC2CN(c4ncc(F)cn4)CCN32)n1C (centres unmarked)
### Response 27.8 min

### Prompt Consider the compound Cc1cc(-c2ccccc2)c(C(=O)C(=O)Nc2ccc3c(c2)C[C@@H]2CN(c4ncc(F)cn4)CCN32)n1C and give its measured half-life.
### Response 54.4 min

### Prompt # get_value(readout='half-life', item= Cc1cc(-c2ccccc2)c(C(=O)C(=O)Nc2ccc(N3CCN(c4ncc(F)cn4)CC3)cc2)n1C [Example F901318, reference compound] )
### Response 25.2 min

### Prompt Which half-life value belongs to Cc1cc(-c2ccccc2)c(C(=O)C(=O)Nc2cc(F)c3c(c2)OC[C@H]2CN(c4ncc(F)cn4)CCN32)n1C ?
### Response 21.8 min

### Prompt half-life for Cc1cc(-c2ccccc2)c(C(=O)C(=O)Nc2ccc3c(c2)OCC2CN(c4ncc(C(F)(F)F)cn4)CCN32)n1C (centres unmarked) ?
### Response 30.7 min

### Prompt Reported half-life for Cc1cc(-c2ccccc2)c(C(=O)C(=O)Nc2ccc3c(c2)CC2CN(c4ncc(F)cn4)CCN32)n1C (centres unmarked) : what is it?
### Response 38.3 min
